# Target desc: T1, IFN-αF (human, UniProt P01568 24-189)
# T1 construct: Recombinant, HEK293; also called IFN-α21
# T1 chain: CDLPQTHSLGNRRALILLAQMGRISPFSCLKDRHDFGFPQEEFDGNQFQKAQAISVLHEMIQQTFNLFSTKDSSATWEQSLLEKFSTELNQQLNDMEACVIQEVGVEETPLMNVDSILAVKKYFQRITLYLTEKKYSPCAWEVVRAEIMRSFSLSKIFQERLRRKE
# Assay protocol: ProteOn SPR, cell supernatant;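 also: each binding measurement used just a single antigen concentration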
As shown below, each of these binders has a reported Kd value.
Entry rule: numbers only, all in nM.

Study these solved cases before continuing.
IFWM3387 (antibody, IgG1, V domains shown, mAb; IgG1/kappa said of the parent and of selected mAbs; also called IFWB3122) VH: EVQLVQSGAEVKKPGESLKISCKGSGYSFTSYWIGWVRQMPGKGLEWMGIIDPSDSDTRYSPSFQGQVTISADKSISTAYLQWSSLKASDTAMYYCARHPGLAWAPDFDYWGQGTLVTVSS VL: DIQMTQSPSSLSASVGDRVTITCRASQSIGGFLNWYQQKPGKAPKLLIYFASSLQSGVPSRFSGSGSGTDFTLTISSLQPEDFATYYCQQSYSLPITFGQGTKVEIK	0.058
IFWM3406 (antibody, IgG1, V domains shown, mAb; IgG1/kappa said of the parent and of selected mAbs; also called IFWB3141) VH: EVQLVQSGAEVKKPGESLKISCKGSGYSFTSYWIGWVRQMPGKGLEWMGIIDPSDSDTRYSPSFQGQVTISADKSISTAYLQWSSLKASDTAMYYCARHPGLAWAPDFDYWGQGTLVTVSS VL: DIQMTQSPSSLSASVGDRVTITCRASQSINNLNWYQQKPGKAPKLLIYWASSLQSGVPSRFSGSGSGTDFTLTISSLQPEDFATYYCQQGYDTPFTFGQGTKVEIK	0.037

Kindly consider the entry below.
Identify the reported Kd for the following entry. IFWM3370 (antibody, IgG1, V domains shown, mAb; IgG1/kappa said of the parent and of selected mAbs; also called IFWB3105) VH: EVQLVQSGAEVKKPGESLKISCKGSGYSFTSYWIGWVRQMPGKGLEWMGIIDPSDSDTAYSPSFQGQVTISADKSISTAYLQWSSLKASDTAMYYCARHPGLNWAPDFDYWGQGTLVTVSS VL: DIQMTQSPSSLSASVGDRVTITCRASQSIDNSYLNWYQQKPGKAPKLLIYGASSLQSGVPSRFSGSGSGTDFTLTISSLQPEDFATYYCQQGWDWPLTFGQGTKVEIK
0.039
